- System: CAKI-1 renal
- Procedure text: NCI tumour cell line growth inhibition, 48 h
Give measured TGI for each item. Keep answers brief.

Quick one: TGI of `COc1cc(C(=O)C/C(CCC(=O)Nc2ccccc2[N+](=O)[O-])=N\NC(=O)C(N)=O)ccc1O` ?
> 100 µM

Which TGI value is on record for CCOC(=O)C(NNS(=O)(=O)c1ccc(C)cc1)S(=O)(=O)C(F)(F)C(F)(F)C(F)(F)C(F)(F)F (centres undefined) ?
> 100 µM

Form field: reported TGI of `CCCC(OCC)(OCC)OCC`
> 100 µM

Reported TGI for c1ccc(N/N=C2\CC(c3ccccc3)Oc3ccccc32)cc1 (centres undefined) : what is it?
> 100 µM

The reported numbers originate from PubChem BioAssay (NCI).
